Hello, the source for this data is PubChem BioAssay AID1159580, in case you need it.

test: chemical genetic growth profiling, strain panel (AID 1159580);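 also: tested at 20 µM; growth read once vehicle control cultures reached saturation at 30 °C; 1 = growth at the plate median or of vehicle wells; lower values mean less growth of the strain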; conditions: S. cerevisiae deletion strains, growth OD, locus YFL009W, strain cdc4, hits give low values
Out of some 5,500 compounds screened, about 2,000 (36%) were called active. About 18% were inconclusive and are not listed. The list shows a part of the results.
Kindly state normalized growth for each of the entries shown.

Record COc1ccc(CC2CCC(=NOC(=O)c3c(Cl)cccc3Cl)CC2)cc1 (stereo unspecified) , field normalized growth: 1.02 (inactive)

// field: normalized growth; key: Cc1ccc(N2C(=O)CSC2c2ccc(Cl)c(Cl)c2)cc1Cl (stereo unspecified) ; value = 0.977 (inactive)

Please fill in: normalized growth reported for O=C1CSC(c2ccc(C(F)(F)F)cc2)N1c1ccc(C(F)(F)F)cc1 (stereo unspecified) = 1 (inactive)

Per the records, this compound ( O=C(CCn1c(=O)oc2ccccc21)Sc1ccc(Cl)cc1Cl ) has normalized growth equal to 0.905 (inactive)

Entry O=S(=O)(Nc1ccc(Oc2ccc(OC(F)(F)F)cc2)cc1)c1cccc(Cl)c1 , normalized growth reported as 0.979 (inactive)

Short answer for O=C(Nc1ccc(Cl)cc1)O/N=C\c1ccn(-c2ccccc2)n1 : normalized growth was 0.961 (inactive)

// S=C(NNc1ccccc1)Nc1cc(Cl)ccc1Cl : normalized growth value = 0.974 (inactive)

Given item Oc1ccc(N=Nc2ccccn2)c(O)c1 , the value recorded as its normalized growth is 0.0975 (active)

# normalized growth (compound: CC1C/C(=N/Nc2ccc(Br)cc2)c2cc(Cl)ccc2S1(=O)=O (stereo unspecified) ) is 0.991 (inactive)

Sure, the documented normalized growth for COc1ccc(C(=O)NCc2csc3ccc(Cl)cc23)cc1OC is 0.97 (inactive)

normalized growth recorded for this compound, O=C(Nc1ccc(F)c(Cl)c1)c1ccccc1O , is 0.888 (active)

The reported normalized growth of the compound O=[N+]([O-])c1ccc(-c2csc(Nc3ccncc3)n2)cc1 was 0.981 (inactive)

Data point: Cc1onc(-c2ccccc2)c1C(=O)Sc1ccc(C(F)(F)F)cn1 ; normalized growth = 0.951 (inactive)

CC1C/C(=N/Nc2ccc(Br)cc2)c2cc(Cl)ccc2S1 (stereo unspecified) has a reported normalized growth of 0.434 (active)

normalized growth for COc1cc(CC/C(C)=N\O)ccc1OCc1ccc(Cl)c(Cl)c1 is 0.968 (inactive)

response.value for COc1cc(CC/C(C)=N/O)ccc1OCc1ccc(Cl)cc1Cl (field: normalized growth) = 0.968 (inactive)

normalized growth reported for this compound Cc1c(S(=O)(=O)c2ccc(Cl)cc2)csc1C(=O)NNc1cccc(Cl)c1 : 0.962 (inactive)

Form field normalized growth, entry Cc1ccc(S(=O)(=O)Nc2ccc(Oc3ccc(F)cc3)cc2)cc1 : 0.983 (inactive)

The compound identified as O=C(NNc1ccc(Cl)cc1)c1ccc(F)cc1F registered its normalized growth at 0.971 (inactive)

Lab book: normalized growth of CC1(C)c2ccccc2N(CCC(N)=O)C12C=Cc1c(ccc3ccccc13)O2 (stereo unspecified) noted as 0.979 (inactive)

Per the record, S=C(Nc1cc(Cl)c(Cl)cc1Cl)Nc1ccccc1Br has normalized growth of 0.963 (inactive)

---

assay: chemical genetic growth profiling, strain panel (AID 1159580);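 also: tested at 20 µM; growth read once vehicle control cultures reached saturation at 30 °C; 1 = growth at the plate median or of vehicle wells; lower values mean less growth of the strain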; conditions: S. cerevisiae deletion strains, growth OD, locus YGR229C, strain SMI1, hits give low values
About 2,000 (36%) of roughly 5,500 compounds were called active. Another 18% or so got no clear call; they are omitted. Some of the results follow.
I'd be grateful if you could share measured normalized growth for these entries.
Enter a number only.

The value of normalized growth measured for the compound c1ccc2c(c1)CN1CCCC1=N2 turned out to be 1.03

Recorded normalized growth (compound CN[C@@H]1[C@H](OC2[C@H](O[C@H]3[C@H](O)[C@@H](O)[C@H](N=C(N)N)[C@@H](O)[C@@H]3N=C(N)N)O[C@@H](C)[C@]2(O)C=O)O[C@@H](CO)[C@H](O)[C@H]1O (stereo partly specified) ): 1

normalized growth reading for S=P(N1CC1)(N1CC1)N1CC1 : 0.971

In plain terms, CC(=O)c1ccc(-c2ccc(Cl)c(Cl)c2)o1 has a documented normalized growth of 0.956

The reported value for C[C@H](N)[C@H](O)c1ccccc1 in terms of normalized growth is 1

The compound listed as O=[N+]([O-])c1cccc(-c2csc(Nc3ccccc3Cl)n2)c1 shows normalized growth equal to 0.959

The recorded normalized growth for entry Cc1cc(C)cc(OCC2CNC(=O)O2)c1 (stereo unspecified) equals 1.02

Recorded normalized growth (compound CN(C)C(=O)Nc1ccc(Cl)c(Cl)c1 ): 0.942

The value of normalized growth measured for the compound CC12CC3CC(C)(C1)CC(N)(C3)C2 turned out to be 1.02

normalized growth reading for O=c1cc(-c2ccc(O)cc2)oc2cc(O)cc(O)c12 : 1.01

Reported normalized growth of CCCCN1CCC(COC(=O)c2cc(Cl)c(N)c3c2OCCO3)CC1 : 0.966
